Target: Glucocorticoid receptor (Homo sapiens)
Test: GR-GFP Redistribution (AID 450); also: potency is read from the fitted curve at half-maximal effect
Conditions: U2OS GR-GFP nuclear translocation, laser cytometry, 2 h
Activity calls are given as the source filed them.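 The calls were made as follows: active = compounds whose dose series gives a full or clear partial fitted curve of increased nuclear translocation; inconclusive = weak partial curve or effect only at the top dose; inactive = no dose-dependent translocation response.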

| cpdSmiles | Potency |
| --- | --- |
| Cc1nc2cnc(Oc3ccccc3)nc2n(C)c1=O | > 9.22 µM (inactive) |
| COc1ccc(-c2nc3cnc(Nc4cccc(OC)c4)nc3n(C3CC3)c2=O)cc1 | > 9.22 µM (inactive) |
| Cc1noc(C)c1-c1cc(Nc2ccc(F)cc2)ncn1 | > 46 µM (inactive) |
| COc1ccc(-n2c(=O)c(-c3cccs3)nc3cnc(OC)nc32)cc1 | > 9.22 µM (inactive) |
| N#CCCn1c(=O)cnc2cnc(Oc3ccccc3)nc21 | > 9.22 µM (inactive) |
| Cc1noc(C)c1-c1cc(Nc2ccccc2)ncn1 | > 46 µM (inactive) |
| CN(C)Cc1ccccc1-c1nc(NC2CCNCC2)c2ccccc2n1 | > 46 µM (inactive) |
| N#CCCn1c(=O)c(-c2ccc(F)cc2)nc2cnc(N3CCOCC3)nc21 | > 9.22 µM (inactive) |
| CN(C)Cc1ccccc1-c1cncnc1Nc1ccncc1 | > 46 µM (inactive) |
| COc1ccc(Oc2ncc3nc(CCc4ccccc4)c(=O)n(C[C@H]4CCCO4)c3n2)cc1 | > 9.22 µM (inactive) |
| O=c1cnc2cncnc2n1Cc1ccc(F)cc1 | > 9.22 µM (inactive) |
| N#Cc1cccc(-c2nc3cnc(N4CCOCC4)nc3n(C3CC3)c2=O)c1 | > 9.22 µM (inactive) |
| CN1CCN(c2nc(-c3ccc(N(C)C)cc3)nc3ccccc23)CC1 | > 46 µM (inactive) |
| COCCNc1cc(-c2c(C)noc2C)ncn1 | > 46 µM (inactive) |
| N#CCCn1c(=O)c(-c2ccc(Cl)cc2)nc2cnc(OCc3ccccc3)nc21 | > 9.22 µM (inactive) |
| Cc1cnc(CNc2cc(-c3cccc(NS(C)(=O)=O)c3)ncn2)cn1 | > 46 µM (inactive) |
| Cc1cnc(CNc2ncncc2-c2cccc(C#N)c2)cn1 | > 46 µM (inactive) |
| COCCn1c(=O)c(-c2ccc(F)cc2)nc2cnc(OCc3ccccc3)nc21 | > 9.22 µM (inactive) |
| COc1ccc(Oc2ncc3nc(-c4ccc(Cl)cc4)c(=O)n(C[C@H]4CCCO4)c3n2)cc1 | > 9.22 µM (inactive) |
| CCNc1ncc2nc(-c3cc(F)cc(F)c3)c(=O)n(C)c2n1 | > 9.22 µM (inactive) |
| CCNc1ncc2nc(-c3ccc(Cl)cc3)c(=O)n(CCC#N)c2n1 | > 9.22 µM (inactive) |
| CC(=O)NCCNc1cc(-c2ccccc2C(F)(F)F)ncn1 | > 46 µM (inactive) |
| Cc1cccc(CNc2ncnc3ccc(-c4ccccc4CN(C)C)cc23)c1 | > 46 µM (inactive) |
| COc1ccccc1CNc1cc(-c2c(C)noc2C)ncn1 | > 46 µM (inactive) |
| COc1ccc(-c2nc3cnc(N4CCN(C)CC4)nc3n(Cc3cccs3)c2=O)cc1 | > 9.22 µM (inactive) |
| COCCNc1ncnc2ccc(-c3cccc(OC)c3)cc12 | > 46 µM (inactive) |
| O=c1cnc2cnc(N3CCOCC3)nc2n1C1CC1 | > 9.22 µM (inactive) |
| COCCn1c(=O)c(CCc2ccccc2)nc2cnc(OC)nc21 | > 9.22 µM (inactive) |
| O=c1cnc2cncnc2n1Cc1ccccc1 | > 9.22 µM (inactive) |
| CN1CCN(c2ncc3ncc(=O)n(C4CC4)c3n2)CC1 | > 9.22 µM (inactive) |
| COc1ccc(-n2c(C)c(C(C)=O)c3cc(O)ccc32)cc1 | > 20.6 µM (inactive) |
| COc1ncc2ncc(=O)n(C[C@H]3CCCO3)c2n1 | > 9.22 µM (inactive) |
| c1csc(CNc2ncncc2-c2ccc3c(c2)OCO3)c1 | > 46 µM (inactive) |
| Cc1ccccc1-c1cncnc1N(C)Cc1ccco1 | > 46 µM (inactive) |
| COc1ccccc1-c1cncnc1-n1ccnc1 | > 46 µM (inactive) |
| CNc1ncncc1-c1c(C)noc1C | > 46 µM (inactive) |
| Cc1noc(C)c1-c1cc(N(C)Cc2ccco2)ncn1 | > 46 µM (inactive) |
| FC(F)(F)c1ccccc1-c1nc(N2CCOCC2)c2ccccc2n1 | > 46 µM (inactive) |
| COc1ccc(-n2c(=O)cnc3cnc(N4CCN(C)CC4)nc32)cc1 | > 9.22 µM (inactive) |
| Cc1nc2cnc(N3CCN(C)CC3)nc2n(Cc2ccc(F)cc2)c1=O | > 9.22 µM (inactive) |

Reference source for all entries: PubChem BioAssay (NCATS)
